# EXPERIMENTAL DETAILS: Cmax in male BALB/c mouse at 10 mg/kg, po
# Format: ADME, organism-based
# Set-up: dose 10 mg/kg, route po
# EXPERIMENTAL PARAMETERS: in vivo
VALUE KIND: Cmax (ng/mL)
Hi! Could you send only the number? It should be in ng/mL, unit omitted.

C=CC(=O)N1CC=C(c2c[nH]c3ncnc(-c4ccc(CNC(=O)c5ccccc5)c(F)c4)c23)CC1 | 1440
C=CC(=O)N1CCC(CNc2ncnc3[nH]cc(C(=O)N4CC(Oc5cccc(Cl)c5)C4)c23)CC1 | 48.6

Prompt: Consider the molecule CC#CC(=O)N1CCC(c2c[nH]c3ncnc(-c4ccc(CNC(=O)c5ccc(C(C)(C)C)cc5)c(F)c4)c23)CC1 and give its recorded Cmax.
Response: 49.9

Prompt: Return value of Cmax for input C=CC(=O)N1CCC(CNc2ncnc3[nH]cc(C(=O)N4CC(Oc5cccc(F)c5)C4)c23)CC1 , no commentary.
Response: 148

###

# EXPERIMENTAL DETAILS: Antiproliferative activity against human MINO cells incubated for 72 hrs by CellTiter-Glo assay
# Format: functional, cell-based
pIC50: −log10 of the molar value.
VALUE KIND: pIC50

C=CC(=O)N1CCC[C@@H](n2nc(-c3ccc(Oc4ccccc4)cc3)c3c(N)ncnc32)C1 | < 5.00

Now for another entry.
Prompt: Complete the entry with pIC50 for C=CC(=O)N1CC=C(c2c[nH]c3ncnc(-c4ccc(CNC(=O)c5ccccc5)c(F)c4)c23)CC1
Response: < 5.00

###

# EXPERIMENTAL DETAILS: AUC (0 to t) in male BALB/c mouse at 10 mg/kg, po
# Type: ADME, organism-based
# Set-up: dose 10 mg/kg, route po
# EXPERIMENTAL PARAMETERS: in vivo
// reported AUC(0-t) for each item listed
Express the result in ng·h/mL but write the number alone.

C=CC(=O)N1CCC(CNc2ncnc3[nH]cc(C(=O)N4CC(Oc5cccc(Cl)c5)C4)c23)CC1 | 32.8
C=CC(=O)N1CCC(CNc2ncnc3[nH]cc(C(=O)N4CC(Oc5cccc(F)c5)C4)c23)CC1 | 69.5

// next entry
Prompt: Retrieve AUC(0-t) measured for CC#CC(=O)N1CCC(c2c[nH]c3ncnc(-c4ccc(CNC(=O)c5ccc(C(C)(C)C)cc5)c(F)c4)c23)CC1 and print it.
Response: 8.94

###

A collection of compounds and their measured IC50
# MEASUREMENT TARGET: Tyrosine-protein kinase BTK (Homo sapiens, UniProt Q06187)
# Sequence (Q06187 whole entry): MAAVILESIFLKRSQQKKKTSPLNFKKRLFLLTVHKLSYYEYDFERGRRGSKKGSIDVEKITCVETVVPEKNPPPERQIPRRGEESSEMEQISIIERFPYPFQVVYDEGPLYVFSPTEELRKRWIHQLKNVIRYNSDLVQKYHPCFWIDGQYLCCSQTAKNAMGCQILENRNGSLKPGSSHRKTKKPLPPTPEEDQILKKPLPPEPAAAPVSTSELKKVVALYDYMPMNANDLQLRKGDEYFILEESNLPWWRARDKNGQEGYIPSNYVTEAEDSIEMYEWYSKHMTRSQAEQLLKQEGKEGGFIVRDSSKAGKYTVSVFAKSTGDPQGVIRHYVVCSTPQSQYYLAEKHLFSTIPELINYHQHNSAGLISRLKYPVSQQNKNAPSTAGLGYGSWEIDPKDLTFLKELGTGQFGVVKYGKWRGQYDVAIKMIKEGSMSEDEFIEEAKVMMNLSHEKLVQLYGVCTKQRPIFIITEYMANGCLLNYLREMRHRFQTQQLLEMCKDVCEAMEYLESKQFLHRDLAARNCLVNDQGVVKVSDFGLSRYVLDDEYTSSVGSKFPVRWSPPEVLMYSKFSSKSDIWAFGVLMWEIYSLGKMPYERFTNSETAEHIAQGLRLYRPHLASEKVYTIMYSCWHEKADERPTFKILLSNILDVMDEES
# EXPERIMENTAL DETAILS: Inhibition of BTK (unknown origin) measured by ADP-Glo assay
Write down the value, and be sure its unit follows.

Reference set, count: 4
CC#CC(=O)N1CCC(c2c[nH]c3ncnc(-c4ccc(CNC(=O)c5ccc(C(C)(C)C)cc5)cc4)c23)CC1 | 2.2 nM
C=CC(=O)N1CC[C@H](n2nc(C#Cc3cc(OC)cc(OC)c3)c3c(N)ncnc32)C1 | 94.9 nM
CC#CC(=O)N1CC=C(c2c[nH]c3ncnc(-c4ccc(CNC(=O)c5ccc(C6CC6)cc5)c(F)c4)c23)CC1 | 1.9 nM
CCOc1cc2ncc(C#N)c(Nc3ccc(OCc4ccccn4)c(Cl)c3)c2cc1NC(=O)/C=C/[C@H]1CCCN1C | 31.7 nM

Now let's try a different one.
Prompt: Under Tyrosine-protein kinase BTK (Homo sapiens, UniProt Q06187): report IC50 of C=CC(=O)NC1CCCN(c2ncnc3[nH]cc(C(=O)N4CC(Oc5ccccc5)C4)c23)C1 (stereo not given) .
Response: 5410 nM

###

Listed below: Cmax values for each entry.
# EXPERIMENTAL DETAILS: Cmax in male BALB/c mouse at 2 mg/kg, iv
# Type: ADME, organism-based
# Parameters: dose 2 mg/kg, route iv
# EXPERIMENTAL PARAMETERS: in vivo
Answer format: number, then unit.

These recorded examples may help you get a feel for the data.
C=CC(=O)N1CCC(CNc2ncnc3[nH]cc(C(=O)N4CC(Oc5cccc(F)c5)C4)c23)CC1 | 2230 ng/mL
CC#CC(=O)N1CCC(c2c[nH]c3ncnc(-c4ccc(CNC(=O)c5ccc(C(C)(C)C)cc5)c(F)c4)c23)CC1 | 2160 ng/mL
C=CC(=O)N1CC=C(c2c[nH]c3ncnc(-c4ccc(CNC(=O)c5ccccc5)c(F)c4)c23)CC1 | 2250 ng/mL

Now for the compound whose Cmax we want.
Prompt: Return reported Cmax. Input compound: C=CC(=O)N1CCC(CNc2ncnc3[nH]cc(C(=O)N4CC(Oc5cccc(Cl)c5)C4)c23)CC1
Response: 1250 ng/mL

###

Entries annotated with measured half-life
# EXPERIMENTAL DETAILS: Half-life in male BALB/c mouse at 2 mg/kg, iv
# Assay type: ADME, organism-based
# EXPERIMENTAL PARAMETERS: in vivo
Respond with the bare value in min.

Examples from the recorded data:
C=CC(=O)N1CCC(CNc2ncnc3[nH]cc(C(=O)N4CC(Oc5cccc(Cl)c5)C4)c23)CC1 | 11.4
C=CC(=O)N1CCC(CNc2ncnc3[nH]cc(C(=O)N4CC(Oc5cccc(F)c5)C4)c23)CC1 | 15.6
C=CC(=O)N1CC=C(c2c[nH]c3ncnc(-c4ccc(CNC(=O)c5ccccc5)c(F)c4)c23)CC1 | 40.2

Query compound follows.
Prompt: Query half-life for CC#CC(=O)N1CCC(c2c[nH]c3ncnc(-c4ccc(CNC(=O)c5ccc(C(C)(C)C)cc5)c(F)c4)c23)CC1
Response: 167

###

# EXPERIMENTAL DETAILS: Tmax in male BALB/c mouse at 10 mg/kg, po
# Format: ADME, organism-based
# EXPERIMENTAL PARAMETERS: in vivo
Tmax values, listed per item
Reply numerically in min, unit not repeated.

Worked cases, answers included:
C=CC(=O)N1CC=C(c2c[nH]c3ncnc(-c4ccc(CNC(=O)c5ccccc5)c(F)c4)c23)CC1 | 23.4
C=CC(=O)N1CCC(CNc2ncnc3[nH]cc(C(=O)N4CC(Oc5cccc(F)c5)C4)c23)CC1 | 15
CC#CC(=O)N1CCC(c2c[nH]c3ncnc(-c4ccc(CNC(=O)c5ccc(C(C)(C)C)cc5)c(F)c4)c23)CC1 | 4.8

# ---- query compound ----
Prompt: Annotate the compound C=CC(=O)N1CCC(CNc2ncnc3[nH]cc(C(=O)N4CC(Oc5cccc(Cl)c5)C4)c23)CC1 with its measured Tmax.
Response: 6.6

###

# EXPERIMENTAL DETAILS: Tmax in male BALB/c mouse at 2 mg/kg, iv
# Type: ADME, organism-based
# EXPERIMENTAL PARAMETERS: in vivo
VALUE KIND: Tmax (min)
Express your answer in min, writing the number without its unit.

Sample answers from the record:
C=CC(=O)N1CC=C(c2c[nH]c3ncnc(-c4ccc(CNC(=O)c5ccccc5)c(F)c4)c23)CC1 | 1.8
CC#CC(=O)N1CCC(c2c[nH]c3ncnc(-c4ccc(CNC(=O)c5ccc(C(C)(C)C)cc5)c(F)c4)c23)CC1 | 1.8
C=CC(=O)N1CCC(CNc2ncnc3[nH]cc(C(=O)N4CC(Oc5cccc(Cl)c5)C4)c23)CC1 | 3

Here's the next entry for you.
Prompt: Name the recorded Tmax of the compound listed here: C=CC(=O)N1CCC(CNc2ncnc3[nH]cc(C(=O)N4CC(Oc5cccc(F)c5)C4)c23)CC1
Response: 1.8

###

# System: OCI-Ly3
# EXPERIMENTAL DETAILS: Antiproliferative activity against human OCILY3 cells incubated for 72 hrs by CellTiter-Glo assay
# Type: functional, cell-based
# EXPERIMENTAL PARAMETERS: OCI-Ly3, 72 h
pIC50: −log10 of the molar value.
VALUE KIND: pIC50

C=CC(=O)N1CC=C(c2c[nH]c3ncnc(-c4ccc(CNC(=O)c5ccccc5)c(F)c4)c23)CC1 | < 5.00

Note: attention shifts to another entry.
Prompt: Look up and report measured pIC50 for this entry: C=CC(=O)N1CCC[C@@H](n2nc(-c3ccc(Oc4ccccc4)cc3)c3c(N)ncnc32)C1 [IBRUTINIB]
Response: < 5.00

###

# MEASUREMENT TARGET: Voltage-gated inwardly rectifying potassium channel KCNH2 (Homo sapiens, UniProt Q12809)
# Sequence (Q12809 whole entry): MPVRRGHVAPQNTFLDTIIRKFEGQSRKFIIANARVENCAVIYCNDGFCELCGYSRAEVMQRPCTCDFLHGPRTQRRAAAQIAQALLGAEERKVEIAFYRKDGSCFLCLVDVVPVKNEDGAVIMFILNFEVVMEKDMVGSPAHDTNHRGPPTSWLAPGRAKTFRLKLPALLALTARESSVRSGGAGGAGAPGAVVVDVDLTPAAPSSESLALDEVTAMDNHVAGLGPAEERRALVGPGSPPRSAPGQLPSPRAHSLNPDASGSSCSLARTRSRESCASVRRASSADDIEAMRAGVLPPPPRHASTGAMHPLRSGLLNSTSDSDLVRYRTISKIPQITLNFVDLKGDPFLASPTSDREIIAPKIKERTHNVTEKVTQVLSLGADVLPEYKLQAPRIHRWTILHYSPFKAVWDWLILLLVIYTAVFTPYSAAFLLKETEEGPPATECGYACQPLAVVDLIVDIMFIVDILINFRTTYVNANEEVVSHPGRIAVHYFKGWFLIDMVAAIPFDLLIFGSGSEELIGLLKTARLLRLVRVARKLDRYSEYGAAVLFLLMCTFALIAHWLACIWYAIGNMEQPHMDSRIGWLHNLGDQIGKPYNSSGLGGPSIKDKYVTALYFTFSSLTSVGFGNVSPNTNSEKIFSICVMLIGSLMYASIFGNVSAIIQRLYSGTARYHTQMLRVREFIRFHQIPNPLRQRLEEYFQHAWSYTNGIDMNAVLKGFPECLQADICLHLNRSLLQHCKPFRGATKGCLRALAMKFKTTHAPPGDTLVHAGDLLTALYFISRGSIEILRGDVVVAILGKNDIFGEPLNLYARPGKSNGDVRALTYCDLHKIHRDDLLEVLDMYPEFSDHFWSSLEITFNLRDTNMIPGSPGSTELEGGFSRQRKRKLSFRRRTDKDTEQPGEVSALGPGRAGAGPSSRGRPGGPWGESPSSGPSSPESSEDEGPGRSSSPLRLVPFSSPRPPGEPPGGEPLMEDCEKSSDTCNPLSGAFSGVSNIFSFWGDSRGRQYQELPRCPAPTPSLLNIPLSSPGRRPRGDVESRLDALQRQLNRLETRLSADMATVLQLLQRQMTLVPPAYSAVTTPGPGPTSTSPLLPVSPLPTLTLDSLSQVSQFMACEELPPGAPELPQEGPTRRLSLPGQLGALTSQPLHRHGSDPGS
VALUE KIND: IC50 (µM)
# output: bare number, implied unit µM

Prompt: Quote IC50 with test system Voltage-gated inwardly rectifying potassium channel KCNH2 (Homo sapiens, UniProt Q12809) for C=CC(=O)N1CC=C(c2c[nH]c3ncnc(-c4ccc(CNC(=O)c5ccccc5)c(F)c4)c23)CC1
Response: 4.38

###

# EXPERIMENTAL DETAILS: Half-life in male BALB/c mouse at 10 mg/kg, po
# Format: ADME, organism-based
# EXPERIMENTAL PARAMETERS: in vivo
half-life values for the compounds below.

CC#CC(=O)N1CCC(c2c[nH]c3ncnc(-c4ccc(CNC(=O)c5ccc(C(C)(C)C)cc5)c(F)c4)c23)CC1 | 83.4 min
C=CC(=O)N1CC=C(c2c[nH]c3ncnc(-c4ccc(CNC(=O)c5ccccc5)c(F)c4)c23)CC1 | 35.4 min
C=CC(=O)N1CCC(CNc2ncnc3[nH]cc(C(=O)N4CC(Oc5cccc(F)c5)C4)c23)CC1 | 57 min

Let us examine a further case.
Prompt: Tell me its half-life given C=CC(=O)N1CCC(CNc2ncnc3[nH]cc(C(=O)N4CC(Oc5cccc(Cl)c5)C4)c23)CC1 as the entry.
Response: 23.4 min

Where do the numbers come from? From ChEMBL document CHEMBL5104164.
